# test summary: in vitro
# assay setup: human, hela cells, % viability
I'd be grateful if you could share measured viability at 28.5 h, 10 µM for these entries.
Numbers only, in %.

Known viability at 28.5 h, 10 µM results, listed for orientation:
>  <molecule>
CN1CCOC(CNc2nc(-c3ccncc3)nc3c2CCC3)C1 (stereo not drawn) [CBK304890]

>  <experimental value>
87

$$$$
>  <molecule>
O=C1CC(C(=O)O)SC(NNC(=O)c2ccccc2)=N1 (stereo not drawn) [CBK267944]

>  <experimental value>
91.2

$$$$
>  <molecule>
O=C(NCCCc1ccccn1)C1(c2ccccc2F)CC1 [CBK283155]

>  <experimental value>
93.6

$$$$

Give viability at 28.5 h, 10 µM for each of the items listed below.
1. COc1ccc(C)cc1S(=O)(=O)Nc1ccc(O[C@@H]2CCNC2)c2ccccc12 [CBK051622C]
2. CCOC(=O)N1CCC(NS(=O)(=O)c2ccc(NC(C)=O)cc2)CC1 [CBK045470]
3. COc1ccc(C2=NN(c3ccc([N+](=O)[O-])cc3)C(=O)/C2=C/NCc2ccccn2)cc1 [CBK265276]
4. Cc1nc(-c2ccncc2)c2c(C)nn(-c3ccc(F)cc3)c2n1 [CBK288545]
5. S=C(Nc1ccc(C2=NCCO2)cc1)Nc1ccc(Cl)c(Cl)c1 [CBK022344]
6. CCc1noc(C)c1C(=O)NCCN1CCCCC1C (stereo not drawn) [CBK282219]

Reply text:
1: 104; 2: 97.8; 3: 107; 4: 89.2; 5: 90.6; 6: 98.9

###

# test summary: in vitro
# assay setup: human, hela cells, % viability
observed property: viability at 28.5 h, 10 µM
Hi, when you answer, please include the unit after the number. Thanks!

Known viability at 28.5 h, 10 µM results, listed for orientation:
>  <molecule>
O=C(NCc1ccccn1)c1cc(-c2ccc(Cl)cc2)[nH]n1

>  <experimental value>
99.5%

$$$$
>  <molecule>
COc1cccc(NC(=O)CCS(=O)(=O)c2cccs2)c1

>  <experimental value>
100%

$$$$
>  <molecule>
CC1CCCN(C(=O)CN2C3CCC2CC(O)(c2ccco2)C3)C1 (centres unmarked)

>  <experimental value>
98.8%

$$$$
>  <molecule>
Nc1ncc(-c2ccoc2)nc1NCc1ccco1

>  <experimental value>
97.2%

$$$$

Let us examine a further case.
Inquiry: State the recorded viability at 28.5 h, 10 µM for this entry: O=C1CN(Cc2ccc(Cl)cc2)CCO1 [CBK023036C]
Reply text: 88.7%

###

# test summary: in vitro
# assay setup: human, hela cells, % viability
I'd be grateful if you could share measured viability at 28.5 h, 10 µM for these entries.
Give bare numbers, in %.

>  <compound>
CCN(CC)Cc1c(O)ccc2cc(-c3nc4ccccc4[nH]3)c(=O)oc12

>  <viability at 28.5 h, 10 µM / %>
102

$$$$

Give viability at 28.5 h, 10 µM for each of the items listed below.
1. Cc1ccc(CNC(=O)CSc2nc(N)n[nH]2)cc1
2. CC(C)NC(=O)C1(Cc2ccc(-c3ccccc3)cc2)CCN(C(=O)C2CCCC2)CC1

Reply text:
103
101

###

# test summary: in vitro
# assay setup: human, hela cells, % viability
Label MET when viability at 28.5 h, 10 µM is strictly below 90%; otherwise label NOT MET.

See these solved cases before continuing.
>  <compound>
Fc1cccc2sc(Nc3nc(-c4cccs4)cs3)nc12 [CBK287476]

>  <category label>
MET

$$$$
>  <compound>
COc1cc(C)c(Nc2cc(-c3ccc(C(N)=O)cc3)ncn2)cc1OC [CBK090784]

>  <category label>
NOT MET

$$$$

Please find the next compound below.
Inquiry: For CC(C)(C)C(=O)NCCn1nc(-c2cccs2)ccc1=O [CBK283839] , is the recorded viability at 28.5 h, 10 µM below the cut-off of 90%?
Reply text: NOT MET

###

I'd be grateful if you could share measured viability at 28.5 h, 10 µM for these entries.
# test summary: in vitro
# assay setup: human, hela cells, % viability
One number for each entry, in %.

>  <compound>
Cc1nc(-c2cc3c(s2)CCN(Cc2ccc(CO)o2)C3)cs1

>  <experimental value>
90

$$$$
>  <compound>
CCCC/C=C/c1cncc(NCCc2c[nH]c3ccccc23)n1

>  <experimental value>
100

$$$$
>  <compound>
COc1cc([C@@]23CC[C@@H](NC(=O)Nc4ccc(F)c(F)c4)C[C@@H]2N(C)CC3)ccc1O [CBK049958C]

>  <experimental value>
90.3

$$$$
>  <compound>
C/C(=C(/C(=O)N(N)c1nc2ccccc2s1)C(=O)C(F)(F)F)N1CCC(C(N)=O)(N2CCCCC2)CC1

>  <experimental value>
101

$$$$

Give viability at 28.5 h, 10 µM for each of the items listed below.
1. CC1=NN(c2ccc([N+](=O)[O-])cc2)C(=O)/C1=C/NCc1ccc(S(N)(=O)=O)cc1
2. O=c1n(-c2cccc(C(F)(F)F)c2)ccn1S(=O)(=O)c1ccc(N2CCOCC2)nc1
3. CC(Oc1cccc(C#N)c1)C(=O)N1CCCC1C(=O)NCC(F)(F)F (stereo not shown)
4. O=C(Nc1ccc(S(=O)(=O)N2CCCCC2)cc1)c1ccc(CN2CCc3ccccc3C2)cc1
5. CCNC(=S)N1CC[C@@H]2N(C)CC[C@]2(c2ccc(OC)c(OC)c2)CC1 [CBK059113T]
6. CS(=O)(=O)c1ccc(-c2ccc3c(c2)CN(C2CCN(C(=O)c4ccccc4)CC2)CCO3)cc1
7. Cn1c(=O)c2c(nc(CN3CCC(Cc4ccccc4)CC3)n2CC(=O)c2ccccc2)n(C)c1=O
8. Cc1cc(NS(=O)(=O)c2ccc(-c3ccon3)s2)n(C)n1

Reply text:
[111, 104, 93.8, 90.7, 88.5, 103, 88, 85.4]

###

I'd be grateful if you could share measured viability at 28.5 h, 10 µM for these entries.
# test summary: in vitro
# assay setup: human, hela cells, % viability
Numbers only, in %.

Known viability at 28.5 h, 10 µM results, listed for orientation:
>  <compound>
OCCn1ncc2c(NCc3nncn3-c3ccccc3)ncnc21 [CBK304608]

>  <u>
%

>  <viability at 28.5 h, 10 µM>
98.5

$$$$
>  <compound>
O=C(C1CCCO1)N1C2CCC1CC(O)(c1ccco1)C2 (stereo not shown) [CBK284035]

>  <u>
%

>  <viability at 28.5 h, 10 µM>
83

$$$$
>  <compound>
Cc1c(Br)c(C(F)(F)F)nn1CC(=O)N1CCCC1 [CBK071473]

>  <u>
%

>  <viability at 28.5 h, 10 µM>
92.9

$$$$
>  <compound>
C=CCNc1nc(NCCN2CCOCC2)nc(N2CCOCC2)n1 [CBK263074]

>  <u>
%

>  <viability at 28.5 h, 10 µM>
112

$$$$
>  <compound>
CN(Cc1cccnc1)C(=O)CSC(c1ccccc1)c1ccccc1 [CBK298284]

>  <u>
%

>  <viability at 28.5 h, 10 µM>
90.7

$$$$
>  <compound>
COc1ccc(NC(=O)CSc2nnc(C(O)c3ccccc3)n2C)cc1 (stereo not shown) [CBK266053]

>  <u>
%

>  <viability at 28.5 h, 10 µM>
110

$$$$
>  <compound>
CC(O)CNc1nccnc1-c1ccccc1 (stereo not shown) [CBK089257]

>  <u>
%

>  <viability at 28.5 h, 10 µM>
95.7

$$$$
>  <compound>
N=C1NC(=O)/C(=C/c2c(OS(=O)(=O)c3ccc(Cl)cc3)ccc3ccccc23)S1 [CBK265311]

>  <u>
%

>  <viability at 28.5 h, 10 µM>
89.6

$$$$

Give viability at 28.5 h, 10 µM for each of the items listed below.
1. CCCCSc1cc(C)nc2ncnn12 [CBK021443]
2. COc1ccccc1N1C(=O)CC(SC(=N)N/N=C(\C)c2ccc(O)cc2)C1=O (stereo not shown) [CBK262766]

Reply text:
105
100

###

# test summary: in vitro
# assay setup: human, hela cells, % viability
observed property: viability at 28.5 h, 10 µM (%)
Numbers only, in %.

>  <molecule>
Cc1cc(C)nc(N2CCC(CC(=O)NCCOc3cccc(F)c3)CC2)n1

>  <u>
%

>  <experimental value>
112

$$$$

Give viability at 28.5 h, 10 µM for each of the items listed below.
1. Cc1nc2c(c(=O)[nH]1)CCN(Cc1[nH]c3ccc(F)cc3c1C)C2
2. CC(C)n1c(=O)n(CC(=O)N2CCc3ccccc32)c2cccnc21

Reply text:
[89.4, 103]

Give viability at 28.5 h, 10 µM for each of the items listed below.
1. CCNS(=O)(=O)c1ccc2c(c1)N(Cc1cccnc1C)CC2
2. O=C(NCc1ccc(Cl)cc1)c1cnc2ccc(CN3CCSCC3)cc2c1O
3. COc1ccccc1CC(=O)NC(CCSC)c1nnc2ccccn12 (stereo not shown)
4. CC(=O)Nc1nnc(-c2ccc(Cl)cc2)s1
5. CC(C)n1cc(C(=O)N2CCC(c3cc4ncccc4[nH]3)CC2)cn1

Reply text:
[92.1, 97.9, 92.1, 94.4, 95.6]

Give viability at 28.5 h, 10 µM for each of the items listed below.
1. CCOC(=O)C1=CC2C(=NC3=C2CCCC3)C=C1 (stereo not shown)
2. Cc1nc(N)nc(NCCC2CCCOC2)c1Cl (stereo not shown)

Reply text:
1. 74.6
2. 97.1
